Method Description: yeast growth modulation, basal conditions, primary screen, YJM789 clinical isolate, OD600, 24 h (AID 1089);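 further: growth of clinical yeast isolate S. cerevisiae YJM 789 seeded 1000 cells per well; test concentration not given here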
Test Settings: S. cerevisiae YJM789 growth, higher = more signal, called active from +8 up or from −8 down
Readout: z-score
// response body must contain only the number

For orientation, consider the following solved cases.
[
  {
    "Compound": "OCCCc1cc[n+](Cc2cc3c(cc2Br)OCO3)cc1",
    "z-score": -0.41
  },
  {
    "Compound": "COc1ccc(NN2C(C(O)c3ccccc3)C=CC3C(=O)N(C4CCCCC4)C(=O)C32)cc1 (centres undefined)",
    "z-score": -0.0673
  },
  {
    "Compound": "C=CCN1C(=O)[C@]2(O[C@H](CCO)[C@@H]([Si](C)(C)c3ccc(OC)cc3)[C@@H]2C)c2cc(N3C(=O)c4ccccc4Oc4ccccc43)ccc21",
    "z-score": 0.922
  }
]

Query compound follows.
Query string: Which value of z-score has been reported for `O=C1O[C@@H](c2ccccc2)[C@@H](c2ccccc2)N2[C@@H](c3ccccc3OCCO)[C@]3(C(=O)Nc4ccc(C#CC5(O)CCCCCC5)cc43)[C@@H](C(=O)N3CCCCCCC3)[C@H]12` in the records?
Result string: 0.834
